Item-by-item account of solubility kinetic
- conditions_used: buffer; pH 7.4; 200.0 µM
value_kind: solubility kinetic

1. CC(C)Cn1c(=O)c2c(nc3n2CCS3)n(C)c1=O :: > 42.1 µg/mL
2. CC1CC(C)CN(C(=O)COC(=O)CCC(=O)c2cccs2)C1 (centres undefined) :: > 50.6 µg/mL
3. CCCC(=O)Nc1nc(CC(=O)OCC)cs1 :: > 38.4 µg/mL
4. COc1ccc(N(CC(=O)Nc2cccnc2)S(C)(=O)=O)cc1 :: > 50.3 µg/mL

###

- conditions_used: buffer; pH 7.4; 200.0 µM
value_kind: solubility kinetic

1) N/C(CSc1ncccc1C(F)(F)F)=N\O :: > 37.7 µg/mL
2) CC(CN1CCN(C)CC1)OC(=O)c1cccc(F)c1.Cl (stereo unspecified) :: > 47.5 µg/mL
3) CC1CCCC(NC(=O)c2ccc3c(c2)OCO3)C1C (stereo unspecified) :: > 41.3 µg/mL
4) CC1CCN(C(=O)c2ccccc2NC(=O)Cc2ccccc2)CC1 :: > 50.5 µg/mL
5) Cc1ccc(S(=O)(=O)NCc2cccnc2)cc1C :: > 41.5 µg/mL
6) CN(Cc1ccccc1)C(=O)CC(=O)N(C)Cc1ccccc1 :: > 46.6 µg/mL

###

- conditions_used: buffer; pH 7.4; 200.0 µM
value_kind: log10 solubility kinetic (log10 of the value in µg/mL)

1) COc1ccc(OC)c(/C=C/C(=O)Nc2ccc(OC)nc2)c1 :: 0.67
2) COc1ccc(/C=C/C(=O)OCC(=O)NC2CCCC2)cc1OC :: 1.69
3) C=Cc1cccc(NC(=O)c2ccc(NC(=O)c3ccco3)cc2)c1 :: 0.49
4) O=C(Nc1cc(S(=O)(=O)N2CCOCC2)ccc1O)c1ccc(S(=O)(=O)N2CCCCC2)cc1 :: 0.68
5) CCn1c(SCc2ccccc2)nc2c1c(=O)[nH]c(=O)n2C :: 1.59
6) Nc1ccc(C(=O)NCCCSc2ccccc2)cc1[N+](=O)[O-] :: 0.20
7) CC1(NC(=O)C2CCCCC2)CCS(=O)(=O)C1 (configuration not stated) :: 1.55
8) O=C(NCCc1ccc(Cl)cc1)C1COc2ccccc2O1 (configuration not stated) :: 0.74
9) CCC(CC)NC(=O)Cn1c(C(C)NC(C)=O)nc2ccccc21 (configuration not stated) :: 1.62
10) Cn1c(=NC(=O)COc2ccccc2)sc2ccccc21 :: -0.10
11) COc1ccc(C)cc1NC(=S)N1CCN(c2ncccn2)CC1 :: 1.68
12) O=c1c2[nH]c3ccc(Br)cc3c2ncn1Cc1ccncc1 :: -0.40
13) CCOc1ccc(C(=O)N2CCN(c3ncccn3)CC2)cc1 :: 1.63
14) OCC1(CCOc2ccccc2)CCN(Cc2ccncc2)CC1 :: 1.59
15) CCOC(=O)C1CCN(S(=O)(=O)c2ccccc2[N+](=O)[O-])CC1 :: 1.64
16) Cc1ccnc(N2CCC(C(=O)NCc3ccc(F)cc3)CC2)n1 :: 1.22
17) O=[N+]([O-])c1ccc(OCCn2cnc3ccccc32)cc1 :: 0.88
18) Cc1cccc(C(=O)NC(=S)NCc2ccccc2)c1 :: 0.38
19) Cc1nc(-c2ccccn2)nc(N(C)c2ccccc2)c1Cl :: 1.62

###

- conditions_used: buffer; pH 7.4; 200.0 µM
Please mark Fulfilled if the recorded solubility kinetic is equal to or greater than 10 µg/mL, and Not fulfilled if it falls below.

1. Cc1ccc(S(=O)(=O)N2CCN(C(C)CC(=O)O)CC2)cc1 (stereo not drawn) :: Fulfilled
2. Oc1c(C(c2ccccn2)N2CCOCC2)ccc2cccnc12 (stereo not drawn) :: Not fulfilled
3. CCOC(=O)Cc1nc2nc(C)cc(C)n2n1 :: Fulfilled
4. Nc1nc(NCCOCCO)nc(N2CCCCCC2)c1[N+](=O)[O-] :: Fulfilled
5. Cc1cc(OCCCCN2C(=O)NC(C)(C)C2=O)ccc1[N+](=O)[O-] :: Fulfilled
6. CCc1ccccc1NC(=S)N1CCN(c2cccc(OC)c2)CC1 :: Not fulfilled
7. Cc1nc2sc3c(c2c(=O)n1NC(=O)CCl)CCCC3 :: Fulfilled
8. CCN(CC)c1ccc(/C=N/O)cc1 :: Fulfilled
9. CCOc1ccc(/C=N/OCC(=O)NCc2ccco2)cc1 :: Fulfilled
10. CCN(C(=O)C12CC3CC(CC(C3)C1)C2)C1CCS(=O)(=O)C1 (stereo not drawn) :: Fulfilled
11. CN1C(=O)NC(c2cccc([N+](=O)[O-])c2)C2=C1CCCC2=O (stereo not drawn) :: Fulfilled
12. Cc1cc(C(=O)OCC(=O)NC2CC2)ccc1[N+](=O)[O-] :: Fulfilled
13. S=C(NCc1ccc2c(c1)OCO2)NCc1ccco1 :: Fulfilled
14. O=C(CSC(=S)N1CCCC1)Nc1cc2c(cc1Br)OCCO2 :: Not fulfilled
15. COc1cc2ncnc(NCc3ccc4c(c3)OCO4)c2cc1OC :: Not fulfilled
16. Cc1csc(Nc2ccc(Cl)cc2)n1 :: Fulfilled
17. Cc1cccc(OCCCC(=O)NC2CCCCC2)c1 :: Fulfilled
18. CCOC(=O)c1cn(CC#N)c2cc(F)c(F)cc2c1=O :: Fulfilled

###

- conditions_used: buffer; pH 7.4; 200.0 µM
Item-by-item account of solubility kinetic
value_kind: solubility kinetic

1) Cc1ccc(N2CC(C(=O)N3CCCCCC3)CC2=O)cc1 (stereo not given) :: > 45.1 µg/mL
2) Cl.N#C/C(=C/c1cc(Cl)c(O)c(Cl)c1)C(=O)N1CCCCC1 :: > 54.2 µg/mL
3) CCc1ccc(-c2cnc3nc[nH]c(=O)c3n2)cc1 :: > 37.8 µg/mL
4) CC1CCCCC1N=C1NC(C)(C)CS1 (stereo not given) :: > 34 µg/mL
5) CCN1CNC(=S)N(c2cccc(C)c2)C1 :: > 35.3 µg/mL

###

- conditions_used: buffer; pH 7.4; 200.0 µM
value_kind: solubility kinetic

1. COC(=O)c1cccc2c1NC(=O)C2=O :: > 30.8 µg/mL
2. CCOC(=O)C1CCCN(Cc2nc(CC3CC3)no2)C1 (stereo not given) :: 40 µg/mL
3. O=S(=O)(c1ccc(Cl)cc1)N1CCNCC1 :: > 39.1 µg/mL
4. NC1=C(c2ccccc2)C(=O)NC1=O :: > 28.2 µg/mL
5. O=c1[nH]c(O)c(C=NC2CCCCC2)c(=O)[nH]1 :: > 35.6 µg/mL

###

- conditions_used: buffer; pH 7.4; 200.0 µM
value_kind: solubility kinetic

1. O=C1NCCN/C1=C\C(=O)c1cccc(Br)c1 :: > 44.3 µg/mL
2. COc1cccc(NC(=O)N(CCN(C)C)C(C)c2cccnc2)c1 (stereo unspecified) :: > 51.4 µg/mL
3. O=C(Nc1ccc(F)cc1)c1cccnn1 :: > 32.6 µg/mL
4. O=[N+]([O-])c1ccc(NCCN2CCOCC2)c([N+](=O)[O-])c1 :: > 44.4 µg/mL
5. CC(C)C(=O)N1CC(=O)Nc2ccc(F)cc2C1c1ccc(F)cc1 (stereo unspecified) :: > 51.7 µg/mL
6. OC1(c2ccc3c(c2)OCO3)CCN(Cc2ccc(F)cc2)CC1 :: > 49.4 µg/mL

###

- conditions_used: buffer; pH 7.4; 200.0 µM
Item-by-item account of solubility kinetic
value_kind: solubility kinetic

1. O=C(O)COCC(=O)Nc1ccc2c(c1)ncn2CCc1ccccc1 :: > 53 µg/mL
2. CCNC(=S)N1CCCC(c2nc3ccc(C)cc3[nH]2)C1 (stereo not drawn) :: > 45.4 µg/mL
3. CCOCCCNC(=O)N[C@H](C(=O)OC)C(C)CC (stereo partly drawn) :: > 41.2 µg/mL

###

- conditions_used: buffer; pH 7.4; 200.0 µM
value_kind: solubility kinetic

1. O=C1c2ccccc2C(=O)N1C(CO)C(O)c1ccc([N+](=O)[O-])cc1 (stereo unspecified) :: > 51.3 µg/mL
2. CCC(=O)Nc1ccc(NCc2cccs2)cc1 :: > 39.1 µg/mL
3. CC(C)n1c(NCCO)nc2ccccc21 :: > 32.9 µg/mL
4. CN(C)C(=O)C12CCC(C)(C(=O)C1Br)C2(C)C (stereo unspecified) :: > 45.3 µg/mL
5. CCOc1ccc(-c2nc3scc(-c4cccs4)c3c(=O)[nH]2)cc1 :: < 0.4 µg/mL
6. COC(=O)CCN(C(=O)c1ccc([N+](=O)[O-])cc1)c1ccccn1 :: > 49.4 µg/mL
7. CCOC(=O)c1cc2c(=O)[nH]c(C(Cl)(Cl)Cl)nc2o1 :: > 48.8 µg/mL
8. Cc1nc(SCc2cccc(F)c2)c2oc3ccccc3c2n1 :: < 0.3 µg/mL
9. CC(=O)N1CCC(C(=O)NCCOc2ccc(C)cc2)CC1 :: > 45.7 µg/mL
10. CN1C(=O)C(O)N=C(c2ccccc2)c2ccccc21 (stereo unspecified) :: > 39.9 µg/mL
11. COc1cccc(C(=O)O/N=C(\N)c2ccccn2)c1OC :: > 45.2 µg/mL
